# System: Hek293 WFS1 over-expressor
# EXPERIMENTAL_DETAILS: In vitro cell viability (CellTiter-Glo), Hek293 WFS1 over-expressor
# Type: cell-based
# RUN_PARAMETERS: Homo sapiens, HEK293, cell viability, Hek293 WFS1 over-expressor; read-out: IC50 class
pIC50: −log10 of the molar value.
READOUT_LABEL: pIC50

INSERT INTO measurements (smiles, system_under_test, result) VALUES
  ('Cc1nc(N[C@H]2C[C@H](Oc3cc(F)c(F)c(F)c3)C2)nc2c1N(C)C(=O)[C@H](C)N2C', 'Hek293 WFS1 over-expressor', '> 7.22');
